Tested on: Streptococcus pyogenes
PROCEDURE TEXT: In vitro antibacterial activity was tested for Streptococcus pyogenes C203
Type: functional
RECORDED ENDPOINT: MIC (µg/mL)
Write it as a number; the unit µg/mL goes unstated.

Check out these entries, answers already filled in.
> print(dat)
                                   compound  recorded.endpoint  experimental.result
1  COc1c(N2CC[C@H](N)C2)c(F)c(N)c2c(=O)c(C(=O)O)cn(C3CC3)c12                MIC                 0.05
2  COc1c(N2CCC(N)C2)c(F)c(N)c2c(=O)c(C(=O)O)cn(C3CC3)c12 (stereo not given)                MIC                  0.1

Problem: Given the compound CCOc1c(N2CCCC(CN)C2)c(F)cc2c(=O)c(C(=O)O)cn(C3CC3)c12 (stereo not given) , what is its reported MIC?
Solution: 0.025

Problem: Proceed to NCC1CCCN(c2cc3c(cc2F)c(=O)c(C(=O)O)cn3C2CC2)C1 (stereo not given)
Solution: 0.05

Problem: Proceed to "COc1c(N2CC[C@H](N)C2)c(F)cc2c(=O)c(C(=O)O)cn(C3CC3)c12"
Solution: 0.025

Problem: Proceed to NCC1CCCN(c2c(F)cc3c(=O)c(C(=O)O)cn(C4CC4)c3c2Cl)C1 (stereo not given)
Solution: 0.003

Problem: Proceed to NCC1CCCN(c2nc3c(cc2F)c(=O)c(C(=O)O)cn3C2CC2)C1 (stereo not given)
Solution: 0.2

Problem: Proceed to CCOc1c(N2CCC(C)(CN)C2)c(F)c(N)c2c(=O)c(C(=O)O)cn(C3CC3)c12 (stereo not given)
Solution: 0.1

Problem: Proceed to "COc1c(N2CCC(N)CC2)c(F)c(N)c2c(=O)c(C(=O)O)cn(C3CC3)c12"
Solution: 0.025

Problem: Proceed to COc1c(N2CCCC(N)C2)c(F)cc2c(=O)c(C(=O)O)cn(C3CC3)c12 (stereo not given)
Solution: 0.013

====

Tested on: Escherichia coli
PROCEDURE TEXT: In vitro antibacterial activity was tested for Escherichia coli Vogel
Format: functional
# key: entry, value: MIC
Write it as a number; the unit mg/L goes unstated.

> print(dat)
                                   molecule  experimental.result
1  CCOc1c(N2CCC(N)C2)c(F)c(N)c2c(=O)c(C(=O)O)cn(C3CC3)c12 (centres undefined)                 0.05

Problem: Given the molecule COc1c(N2CCNC(C)C2)c(F)cc2c(=O)c(C(=O)O)cn(C3CC3)c12 (centres undefined) , what is its reported MIC?
Solution: 0.05

Problem: Proceed to "COc1c(N2CC[C@H](N)C2)c(F)cc2c(=O)c(C(=O)O)cn(C3CC3)c12"
Solution: 0.025

Problem: Proceed to CCOc1c(N2CCC(N)C2)c(F)cc2c(=O)c(C(=O)O)cn(C3CC3)c12 (centres undefined)
Solution: 0.05

Problem: Proceed to NCC1CCCN(c2c(F)cc3c(=O)c(C(=O)O)cn(C4CC4)c3c2F)C1 (centres undefined)
Solution: 0.05

Problem: Proceed to CCOc1c(N2CCCC(N)C2)c(F)cc2c(=O)c(C(=O)O)cn(C3CC3)c12 (centres undefined)
Solution: 0.2

Problem: Proceed to CCOc1c(N2CCCC(N)C2)c(F)c(N)c2c(=O)c(C(=O)O)cn(C3CC3)c12 (centres undefined)
Solution: 0.2

Problem: Proceed to "COc1c(N2CCC(N)CC2)c(F)c(N)c2c(=O)c(C(=O)O)cn(C3CC3)c12"
Solution: 0.1

Problem: Proceed to CCOc1c(N2CCNC(C)C2)c(F)cc2c(=O)c(C(=O)O)cn(C3CC3)c12 (centres undefined)
Solution: 0.1

Where these numbers come from: ChEMBL document CHEMBL1128719
